// data source = PubChem BioAssay (NCI)

- Tested on: RPMI-8226 leukemia
- assay.comment: NCI tumour cell line growth inhibition, 48 h
Collected TGI values appear next to each entry.

{"columns": ["molecule", "tested.on", "TGI"],
 "data": [
  ["CC(O)C1(CNc2cc(Cl)nc(N)n2)CCCC1 (configuration not stated)", "RPMI-8226 leukemia", "> 100 µM"],
  ["Cc1c(CN)c(C)c(CN)c(C)c1CN", "RPMI-8226 leukemia", "> 100 µM"],
  ["C=CCCC(CCC=C)(C(=O)O)C(=O)O", "RPMI-8226 leukemia", "> 100 µM"],
  ["Cc1nc2c(n1-c1ccc(Br)cc1)C(=O)c1ccccc1C2=O", "RPMI-8226 leukemia", "> 100 µM"],
  ["Nc1ncc2ccc3c(ccn3C3CC(O)C(CO)O3)c2n1 (configuration not stated)", "RPMI-8226 leukemia", "> 100 µM"],
  ["Clc1ccc(Cl)c(N=Nc2cc3c4c(c2)CCCN4CCC3)c1", "RPMI-8226 leukemia", "> 10 µM"],
  ["CCCCCCCCCCCCCCNc1nc(C(=O)OCC)ncc1-c1ccc(C(F)(F)F)cc1", "RPMI-8226 leukemia", "> 100 µM"],
  ["COc1cccc(C2SCC(=O)N2c2ccc(-c3ccc(-n4c(-c5ccccc5)nc5ccccc5c4=O)cc3)cc2)c1OC (configuration not stated)", "RPMI-8226 leukemia", "> 100 µM"],
  ["Cc1cccc(N2C(=O)C3c4[nH]c5ccccc5c4C4CCC(C(C)(C)C)CC4C3C2=O)c1C (configuration not stated)", "RPMI-8226 leukemia", "> 100 µM"],
  ["CCN(CC)C(=O)c1c(Cl)cc(N(CC)CC)oc1=O", "RPMI-8226 leukemia", "> 100 µM"],
  ["C=C1C2CC[C@@](C)(O)C2[C@H]2OC(=O)C(=C)[C@@H]2C[C@H]1O (some centres not stated)", "RPMI-8226 leukemia", "> 100 µM"],
  ["CC(=O)CC1(O)C(=O)c2c(Br)sc(Br)c2C1=O", "RPMI-8226 leukemia", "> 100 µM"]
]}

---

- System: NCI-H226 lung
- assay.comment: NCI tumour cell line growth inhibition, 48 h

{"columns": ["compound", "GI50"],
 "data": [
  ["O=c1c2c3c(sc2n2c(CCl)nnc2n1Cc1ccccc1)CCCC3", "1740 nM"],
  ["COc1ccc(C(=O)C2C(C#N)C(C#N)C3C=Cc4ccccc4N32)cc1 (centres undefined)", "2290 nM"],
  ["CC1=C2[C@H]3OC(=O)[C@@H](C)[C@@H]3CC[C@@]2(C)C=CC1=O", "> 100000 nM"],
  ["COc1ccc2[nH]c(C(=O)N3CCN(C(=O)OCc4ccc5c(Br)cc(Br)c(O)c5n4)CC3)cc2c1", "496 nM"]
]}

---

- Test system: SK-OV-3 ovarian
- assay.comment: NCI tumour cell line growth inhibition, 48 h
quantity.name: TGI

{"columns": ["molecule", "quantity.name", "experimental.value"],
 "data": [
  ["Cc1ccc(S(=O)(=O)Oc2ccccc2-c2ccccc2)cc1", "TGI", "> 45.8 µM"],
  ["COc1ccc(-c2c3ccccc3c(-c3ccc(OC)cc3)c3ccccc23)cc1", "TGI", "> 100 µM"],
  ["Cc1cc(C)n(-c2nc3ccccc3c(=O)[nH]2)n1", "TGI", "> 100 µM"],
  ["Cc1ccc2c3c4c(ccc13)C(C)(C)OC4=C(C(C)C)C2=O", "TGI", "> 100 µM"],
  ["O=C(O)c1cc2cc(OCc3ccccc3)ccc2[nH]1", "TGI", "> 100 µM"],
  ["CC(O)C(C(=O)O)N(CC1(O)OCC(O)C(O)C1O)N=O (configuration not stated)", "TGI", "> 100 µM"],
  ["Oc1cccc2cc(Cl)cnc12", "TGI", "> 100 µM"],
  ["CSC1C=C(C(C)C)CCC1(C)SC (configuration not stated)", "TGI", "39.3 µM"],
  ["O=C(CCl)Nc1ccc2c(Nc3cc(O)ccc3Cl)ncnc2c1", "TGI", "7.94 µM"],
  ["N=C(c1ccc(-c2cn3cc(C(=N)N4CCCC4)ccc3n2)cc1)N1CCCC1", "TGI", "> 100 µM"],
  ["N#Cc1c(C#N)c(SSc2c(C#N)c(C#N)c(N)n2-c2ccc(F)cc2)n(-c2ccc(F)cc2)c1N", "TGI", "31.4 µM"],
  ["CC1=Nc2c(N)nc(N)nc2N(C)C1", "TGI", "> 100 µM"],
  ["COc1cc2c(cc1OCCCCOc1cc3nc(C)nc(Cl)c3cc1OC)N=C[C@@H]1CCCN1C2=O", "TGI", "> 100 µM"],
  ["COc1cc(C2c3cc4c(cc3[C@@H](NCCCN3CCCC3=O)C3COC(=O)[C@H]23)OCO4)cc(OC)c1O (some centres not stated)", "TGI", "39.4 µM"],
  ["Cc1ccc(NC(=O)CSc2nnc(Cc3ccccc3)o2)c(C)c1", "TGI", "> 100 µM"],
  ["COc1ccc2c(c1)CC[C@@H]1C2CC[C@]2(C)C(=O)N(CCN3CCCC3)C(=O)CC12 (some centres not stated)", "TGI", "> 100 µM"],
  ["CN(C)c1ccc(Cc2cc(C(C)(C)C)cc(C(C)(C)C)c2O)cc1", "TGI", "74.5 µM"]
]}

---

# reported TGI; entries follow
- System: PC-3 prostate
- assay.comment: NCI tumour cell line growth inhibition, 48 h

{"columns": ["compound", "TGI"],
 "data": [
  ["CCN1C(Cl)=NS(=O)(=O)c2ccccc21", "> 100 µM"],
  ["O=[N+]([O-])c1ccc(/C(=C\\c2ccccc2)Cn2ccnc2)cc1", "95.7 µM"],
  ["NCCOc1ncccc1/C=C1\\C2C=CC=CC2C2C=CC(F)=CC12 (stereo not drawn)", "2.45 µM"],
  ["CO[C@]12C#CC=CC#C[C@@H](O)[C@]3(CCC1)O[C@@]23c1cccc(O)c1", "> 100 µM"],
  ["COc1ccccc1C1(c2c(OC(C)C)c(=O)c2=O)SCCCS1", "> 100 µM"],
  ["NC(=O)[C@@H](CCC(F)(F)F)N(Cc1ccc(-c2ncon2)cc1F)S(=O)(=O)c1ccc(Cl)cc1", "> 100 µM"],
  ["COc1c(-c2ccccc2)oc2c(CP(=O)(OC)OC)cccc2c1=O", "> 100 µM"],
  ["CCOC(=O)C1(C(C)=O)OC(=O)c2cnccc21 (stereo not drawn)", "> 100 µM"],
  ["Clc1ccc(CN2COc3c(ccc4cccnc34)C2)cc1Cl", "11.5 µM"],
  ["Cc1c(-c2ccc(O)c(O)c2)oc(=O)c2c(O)cc(O)cc12", "> 100 µM"],
  ["CC(C)=CCc1ccc2[nH]c3c(c2c1)C(=O)C(=O)C(C)=C3C(O)C(C)O (stereo not drawn)", "43.4 µM"],
  ["CCOC(=O)c1c(O)cc(=O)[nH]c1N1CCOCC1", "> 100 µM"],
  ["Cc1cc(=O)[nH]c(NN2C(Cl)C(=O)C2c2ccc(O)cc2)n1 (stereo not drawn)", "26.8 µM"],
  ["COc1cccc(NC(=O)c2c(SC)c(C#N)c(=O)n(N)c2N)c1", "> 100 µM"],
  ["CO/C(N)=C(\\C#N)N=Cc1ccccc1", "> 100 µM"],
  ["CO/N=C(\\COc1ccc2c(=O)cc(-c3ccccc3)oc2c1)c1ccc(F)cc1", "> 100 µM"],
  ["CCCCCC/C=C\\CCCCCCCCCc1cc(O)cc(OC)c1O", "1.54 µM"],
  ["C=CCNC(=O)NNC(O)(C(=O)OCC)C(F)(F)F (stereo not drawn)", "> 100 µM"]
]}

---

- Tested on: NCI-H23 lung
- assay.comment: NCI tumour cell line growth inhibition, 48 h
# if value of TGI reaches 30 µM, tag true; if it stays below, tag false

{"columns": ["molecule", "class"],
 "data": [
  ["COc1cc2c(cc1OCCCCOc1cc3nc(C)nc(Cl)c3cc1OC)N=C[C@@H]1CCCN1C2=O", "false"],
  ["CC1(C)CC2(S(=O)(=O)c3ccccc3)ON1CC2S(=O)(=O)c1ccccc1 (stereo not drawn)", "true"],
  ["CC(=O)OCCOCn1cc(C=O)c2ccccc21", "true"],
  ["O=C1C=Cc2c(-c3ccccc3)oc3cccc1c23", "true"],
  ["COc1ccc(C(=O)NCCNc2nccc(-c3c(-c4ccc(F)cc4)nc4sccn34)n2)cc1", "true"],
  ["COc1ccc2[nH]c(C(=O)N3CCN(C(=O)OCc4ccc5c(Br)cc(Br)c(O)c5n4)CC3)cc2c1", "false"],
  ["Cc1cc(Br)ccc1NC1=CC(=O)C(=O)c2ccccc21", "true"],
  ["NC(=O)[C@@H](CCC(F)(F)F)N(Cc1ccc(-c2ncon2)cc1F)S(=O)(=O)c1ccc(Cl)cc1", "true"],
  ["CN1N=C(c2ccncc2)OC1c1ccc(Cl)cc1Cl (stereo not drawn)", "true"],
  ["CCN(CCCl)CCCCNc1c2ccccc2nc2ccc(OC)cc12", "false"],
  ["Nc1nc(Cl)c(/C=N\\O)c(NCC2(CO)CC(=O)C2)n1", "true"],
  ["COc1ccc(C2C(Cl)C(=O)N2NC(=O)c2ccccc2O)cc1 (stereo not drawn)", "true"],
  ["CCOC(=O)C1(C(C)=O)OC(=O)c2cnccc21 (stereo not drawn)", "true"],
  ["CC(C)=CCc1ccc2[nH]c3c(c2c1)C(=O)C(=O)C(C)=C3C(O)C(C)O (stereo not drawn)", "true"],
  ["O=c1ccc2ccc(O)c3c4c(=O)ccc5ccc(O)c(c1c23)c54", "false"],
  ["CN(C)c1ccc(/C=C2\\N=C(N/N=C/c3ccc(N(C)C)cc3)NC2=O)cc1", "true"],
  ["COC(O)C(=O)c1c2c(cc3c1CCC3)CCCC2 (stereo not drawn)", "true"]
]}
